molecular target: Peroxisome proliferator-activated receptor alpha (Homo sapiens, UniProt Q07869); experiment: Tested in vitro for inhibiting the 50% binding of Peroxisome proliferator activated receptor alpha
Measured Endpoint: pKi
pKi here: minus log base 10 of the concentration, concentration in moles per litre.

# count of solved cases: 3
Structure As Smiles	pKi
Cc1oc(-c2ccc(F)cc2)nc1CCOc1ccc(C[C@H](Nc2ccccc2C(=O)c2ccccc2)C(=O)O)cc1	7.25
Cc1cc(-c2nc(CCOc3ccc(C[C@H](Nc4ccccc4C(=O)c4ccccc4)C(=O)O)cc3)c(C)s2)no1	6.75
Cn1cc(-c2ccccc2)nc1CCOc1ccc(C[C@H](Nc2ccccc2C(=O)c2ccccc2)C(=O)O)cc1	6.86

**Query** Look up pKi: `COc1ccc(-c2nc(CCOc3ccc(C[C@H](Nc4ccccc4C(=O)c4ccccc4)C(=O)O)cc3)c(C)o2)cc1`
**Result** 6.97

**Query** Give the measured pKi of `Cc1sc(-c2ccccc2)nc1CCOc1ccc(C[C@H](Nc2ccccc2C(=O)c2ccccc2)C(=O)O)cc1` .
**Result** 6.90

**Query** Item under review: `Cc1cc(-c2ccccc2)nn1CCOc1ccc(C[C@H](Nc2ccccc2C(=O)c2ccccc2)C(=O)O)cc1` . Reported pKi?
**Result** 6.76

**Query** Which pKi is listed for `Cc1ccc(-c2nc(CCOc3ccc(C[C@H](Nc4ccccc4C(=O)c4ccccc4)C(=O)O)cc3)c(C)o2)s1` ?
**Result** 7.34

**Query** Quick check: pKi of `Cc1ccsc1-c1nc(CCOc2ccc(C[C@H](Nc3ccccc3C(=O)c3ccccc3)C(=O)O)cc2)c(C)o1` ?
**Result** 6.33

**Query** What measured pKi goes with `Cc1sc(N2CCN(S(C)(=O)=O)CC2)nc1CCOc1ccc(C[C@H](Nc2ccccc2C(=O)c2ccccc2)C(=O)O)cc1` ?
**Result** 5.60

###

Biological target: Peroxisome proliferator-activated receptor alpha (Homo sapiens)
Sequence (Q07869 whole entry): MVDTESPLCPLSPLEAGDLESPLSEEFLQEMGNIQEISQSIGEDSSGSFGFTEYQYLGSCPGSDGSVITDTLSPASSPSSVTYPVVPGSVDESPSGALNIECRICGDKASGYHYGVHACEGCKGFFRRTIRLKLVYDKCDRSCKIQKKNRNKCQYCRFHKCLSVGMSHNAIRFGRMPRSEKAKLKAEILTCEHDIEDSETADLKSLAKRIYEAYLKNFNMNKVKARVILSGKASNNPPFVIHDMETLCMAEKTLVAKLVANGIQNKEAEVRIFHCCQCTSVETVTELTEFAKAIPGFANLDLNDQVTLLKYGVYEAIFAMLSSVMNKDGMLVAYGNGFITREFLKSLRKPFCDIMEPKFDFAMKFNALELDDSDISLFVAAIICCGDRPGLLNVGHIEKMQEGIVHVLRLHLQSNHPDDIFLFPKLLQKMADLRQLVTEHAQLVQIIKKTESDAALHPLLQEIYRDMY
Test: In vitro transactivation of Peroxisome proliferator activated receptor alpha.
Measured Endpoint: pEC50
Scale for pEC50: -log10 of concentration given in mol/L; no unit attached.

Before answering, review these 3 worked examples.
Structure As Smiles	pEC50
Cc1sc(N2CCN(C)CC2)nc1CCOc1ccc(C[C@H](Nc2ccccc2C(=O)c2ccccc2)C(=O)O)cc1	5.19
Cc1oc(-c2ccc(F)cc2)nc1CCOc1ccc(C[C@H](Nc2ccccc2C(=O)c2ccccc2)C(=O)O)cc1	6.59
Cc1ccc(-c2nc(CCOc3ccc(C[C@H](Nc4ccccc4C(=O)c4ccccc4)C(=O)O)cc3)c(C)o2)s1	6.24

// next item, pEC50 requested
**Query** May I ask what pEC50 has been recorded for `Cc1cc(-c2nc(CCOc3ccc(C[C@H](Nc4ccccc4C(=O)c4ccccc4)C(=O)O)cc3)c(C)s2)no1` ?
**Result** 5.74
